Target: human sACt (Homo sapiens, UniProt Q96PN6)
Construct: sACt contains only the C1 and C2 catalytic domains; GST; made in house
Sequence (Q96PN6 1-469 limits assumed): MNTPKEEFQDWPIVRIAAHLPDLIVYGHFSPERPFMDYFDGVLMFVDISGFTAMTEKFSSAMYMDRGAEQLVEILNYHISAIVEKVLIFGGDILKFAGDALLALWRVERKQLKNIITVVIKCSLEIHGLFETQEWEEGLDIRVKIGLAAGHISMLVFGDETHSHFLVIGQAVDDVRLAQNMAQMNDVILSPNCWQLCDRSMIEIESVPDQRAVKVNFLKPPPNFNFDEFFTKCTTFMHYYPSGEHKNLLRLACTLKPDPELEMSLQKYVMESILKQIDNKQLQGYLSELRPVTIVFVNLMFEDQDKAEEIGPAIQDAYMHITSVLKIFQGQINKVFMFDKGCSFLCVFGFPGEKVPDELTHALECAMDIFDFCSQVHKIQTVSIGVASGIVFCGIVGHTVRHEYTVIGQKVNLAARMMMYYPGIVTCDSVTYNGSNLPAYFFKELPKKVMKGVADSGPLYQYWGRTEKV
Test: In vitro adenylyl cyclase activity assay (two-column method), heterologously expressed human sACt (GST)
Assay type: biochemical
Settings: 2 mM ATP, 10 mM MgCl2, 10 mM CaCl2; read-out: EC50 for HCO3^-
Measurement Type: pEC50
The meaning of pEC50 here: minus log10 of the concentration in molar units.

Need pEC50, item O=C(O)O [HCO3^–] 1.85

* * *

Tested on: mouse and human sACfl and sACt
Assay: In vitro adenylyl cyclase activity assay, one result stated for all four sAC proteins
Assay type: biochemical
Conditions: 10 mM test substance; 2 mM ATP, 10 mM MgCl2, 10 mM CaCl2, 40 mM NaHCO3
Measurement Type: inhibition of cyclase activity at 10 mM

O=c1ccn([C@@H]2O[C@H](COP(=O)(O)OP(=O)(O)OP(=O)(O)O)[C@@H](O)[C@H]2O)c(=O)[nH]1 [UTP]    ∼50% inhibition at 10 mM
Cc1cn([C@H]2C[C@H](O)[C@@H](COP(=O)(O)OP(=O)(O)OP(=O)(O)O)O2)c(=O)[nH]c1=O [TTP]    ∼50% inhibition at 10 mM
